System: A498
PROTOCOL_DESCRIPTION: NCI tumour cell line growth inhibition, 48 h
Calls of active or inactive are those of the source. Rule as the data show it: active = GI50 up to about 1.1 µM and inactive = higher. Where a SMILES comes first, the peptide text is derived from it.
OBSERVABLE: GI50

Completed entries (count: 2):
COMPOUND	GI50
c1cncc(C2c3[nH]c4ccccc4c3CCN2CCN2CCCCC2)c1 (configuration not stated)	70.8 µM (inactive)
CC1CC/C(=C\c2ccc(Cl)cc2)C(=O)/C1=C\c1ccc(Cl)cc1 (configuration not stated)	1.63 µM (inactive)

// CCC(C)C1NC(=O)C2CCCN2C(=O)CNC(=O)C(C)NC(=O)C(Cc2ccccc2)NC(=O)C(C(C)C)NC1=O (configuration not stated) (cyclo(GPIVFA); configuration not given here) : GI50 value = > 100 µM (inactive)

// `CN1NC2(CCCCC2)ON=C1c1ccccc1` : GI50 value = > 100 µM (inactive)

// COc1ccc(N2C(=O)CC(c3c[nH]c4ncccc34)C2=O)cc1 (configuration not stated) : GI50 value = 58.5 µM (inactive)

// O=C1[C@H](O)[C@@H]2C(O)O[C@H]3[C@@H]2N1C[C@H]3[Si](c1ccccc1)(c1ccccc1)c1ccccc1 (some centres not stated) : GI50 value = > 100 µM (inactive)

// N#CC(c1cc(Cl)ncn1)c1nc2cc(C(F)(F)F)ccc2s1 (configuration not stated) : GI50 value = 5.85 µM (inactive)

###

Test system: HOP-62
PROTOCOL_DESCRIPTION: NCI tumour cell line growth inhibition, 48 h
Active and inactive are the calls of the source. Cut-off read from the data, not from the text of the source: active = GI50 up to about 1.1 µM and inactive = higher.
Entry note: the call must match one of active, inactive

Would you please look over these solved cases?
COMPOUND	CLASSIFICATION
N#C/C(=C1/Sc2c(nc[nH]c2=O)N1c1ccccc1)c1nc2ccccc2[nH]1	inactive
COc1ccc(C2=NN(c3ccccc3)C[N+](c3ccc(C)cc3)=N2)cc1	inactive

Data request: Please state the recorded outcome for this compound: C/C=C\C(CC(=O)NCCC1CN(S(=O)(=O)c2ccc(C)cc2)c2ccccc21)CC(=O)OC (stereo not drawn)
Data returned: inactive

###

GI50 reference
Test system: NCI-H522
PROTOCOL_DESCRIPTION: NCI tumour cell line growth inhibition, 48 h
Active and inactive are the calls of the source. Cut-off read from the data, not from the text of the source: active = GI50 up to about 1.1 µM and inactive = higher.

Completed entries (count: 6):
MOLECULE	VAL
c1cncc(C2c3[nH]c4ccccc4c3CCN2CCN2CCCCC2)c1 (configuration not stated)	> 100 µM (inactive)
CC1=C(CO)C(=O)O[C@@H]([C@@H](C)[C@H]2CC[C@H]3[C@@H]4C[C@@H](O)[C@@]5(O)CC=CC(=O)[C@]5(C)[C@H]4CC[C@]23C)C1 [JABOROSALACTONE D]	14.2 µM (inactive)
N#CCOc1ccc(/C=C/C(=O)c2ccc(Cl)cc2)cc1	> 10 µM (inactive)
C/C(CC(=O)Nc1ccc(C)cc1C)=N/N=C(N)N	> 100 µM (inactive)
COc1cc(CNc2nc3cc(C(F)(F)F)ccc3nc2C)cc(OC)c1OC	18.3 µM (inactive)
CON(C)C(=O)C1CCCO1 (configuration not stated)	> 100 µM (inactive)

Kindly note: NCI-H522, `FC(F)(F)c1ccc(Cc2nc3cc4ccccc4cc3[nH]2)cc1` , GI50 value reported: 26.7 µM (inactive)

###

System: SNB-78
PROTOCOL_DESCRIPTION: NCI tumour cell line growth inhibition, 48 h
Activity calls are given as the source filed them. No stated cut-off is given here; in the data, active = GI50 up to about 1.1 µM and inactive = higher.
OBSERVABLE: GI50

COMPOUND	GI50
O=C(N/C(=C\c1cc(Cl)ccc1Cl)c1nc2cc(Cl)ccc2[nH]1)c1ccccc1	21.7 µM (inactive)
COC(=O)c1nc(-c2ccc(Cl)c(Cl)c2)nc2ccccc12	34.4 µM (inactive)
COc1ccc(N2C(=O)C3CC(c4ccc(C)cc4)c4c([nH]c5ccccc45)C3C2=O)cc1 (stereo unspecified)	> 51.4 µM (inactive)

// Cc1ccccc1C1OC(=O)c2ccccc21 (stereo unspecified) : GI50 value = > 100 µM (inactive)

// `COc1cc2oc(-c3ccccc3)cc(=O)c2c(O)c1C` : GI50 value = > 100 µM (inactive)

// C/C=C/C1=CC(=O)C(O)C1O (stereo unspecified) : GI50 value = 57.8 µM (inactive)

// `COc1cc2c(cc1OCc1ccccc1)CNCC2` : GI50 value = > 100 µM (inactive)

// `CCC(=O)CC(=O)CCC(=O)Nc1cc(C)ccc1C` : GI50 value = > 100 µM (inactive)

// Cc1cc(-c2ccc(/N=N/c3ccc4c(S(=O)(=O)O)cc(S(=O)(=O)O)c(N)c4c3O)c(C)c2)ccc1/N=N/c1ccc2c(S(=O)(=O)O)cc(S(=O)(=O)O)c(N)c2c1O [EVANS BLUE FREE ACID] : GI50 value = > 85.7 µM (inactive)

// CCCCN(CCCC)C(=O)C(=O)C(C)C(=O)CC (stereo unspecified) : GI50 value = > 100 µM (inactive)

// `CC(=O)NC1=C(N)C(=O)c2ccccc2C1=O` : GI50 value = > 100 µM (inactive)

###

Tested on: K562
PROTOCOL_DESCRIPTION: NCI tumour cell line growth inhibition, 48 h
Active and inactive are the calls of the source. Cut-off read from the data, not from the text of the source: active = GI50 up to about 1.1 µM and inactive = higher.
Entry note: the call must match one of T = active, F = inactive

Would you please look over these solved cases?
COMPOUND	CLASSIFICATION
COC(=O)C1=C(C(=O)OC)C(C(=O)OC)C(C(=O)OC)C(C(=O)OC)(C(=O)OC)C(C(=O)OC)=C1C(=O)OC (stereo not given)	F
COc1cc2oc(-c3ccccc3)cc(=O)c2c(O)c1C	F
C=C(C)[C@H]1C=C[C@@H](OC(C)=O)[C@@]2(COC(C)=O)[C@H](OC(=O)CCC)[C@H]3[C@@H](OC(C)=O)[C@@H](C)C[C@]3(O)C(=O)[C@@](C)(OC(C)=O)[C@H]12	F
COc1ccc2c(c1OC)C(Br)CCC(Br)(Br)C2=O (stereo not given)	F
N#CC1CCCCCCCCCCC(=O)N(CCCl)C1=O (stereo not given)	F

Data request: Please state the recorded outcome for this compound: C=CCC(O)c1cc(OC)ccc1OC (stereo not given)
Data returned: F

Data request: Please state the recorded outcome for this compound: `C[C@H](CCC(=O)O)[C@H]1CC[C@H]2[C@@H]3[C@@H](O)C[C@@H]4C[C@H](O)CC[C@]4(C)[C@H]3CC[C@]12C`
Data returned: F

Data request: Please state the recorded outcome for this compound: `CN(C)CCNC(=O)c1ccc(Cl)c2c(Nc3ccc(S(N)(=O)=O)cc3)c3ccccc3nc12`
Data returned: T

Data request: Please state the recorded outcome for this compound: `CC12c3c4cc(Br)cc3Oc3cc(Br)cc(c31)Oc1cc(Br)cc(c12)O4`
Data returned: F

Data request: Please state the recorded outcome for this compound: COC(Cc1ccccc1)NC(C)=O (stereo not given)
Data returned: F

Data request: Please state the recorded outcome for this compound: C/C=C/C#CC#C/C=C/C=C/C(O)CCO (stereo not given)
Data returned: F

###

GI50 reference
System: SK-MEL-5
PROTOCOL_DESCRIPTION: NCI tumour cell line growth inhibition, 48 h
Active and inactive are the calls of the source. Rule as the data show it: active = GI50 up to about 1.1 µM and inactive = higher.

Completed entries (count: 3):
COMPOUND	GI50
Cc1cc(Cl)ccc1NC(=O)C1C(=O)N(c2ccc(Cl)cc2C)C(=O)/C1=N\NC(N)=S (centres undefined)	32.7 µM (inactive)
COC(Cc1ccccc1)NC(C)=O (centres undefined)	> 100 µM (inactive)
CCOC(=O)NC(OCc1ccccc1)(C(=O)OC)C(F)(F)F (centres undefined)	> 100 µM (inactive)

Here is the next item to consider.
Kindly note: SK-MEL-5, CC1C(c2ccccc2)N(C)C(c2ccccc2)C(C)C1(O)c1ccccc1 (centres undefined) , GI50 value reported: > 100 µM (inactive)

###

Tested on: A549
PROTOCOL_DESCRIPTION: NCI tumour cell line growth inhibition, 48 h
Calls of active or inactive are those of the source. Cut-off read from the data, not from the text of the source: active = GI50 up to about 1.1 µM and inactive = higher.
Entry note: the call must match one of active, inactive

Would you please look over these solved cases?
COMPOUND	CLASSIFICATION
COc1cc(CC2C(=O)OCC2Cc2ccc(OC)c(OC)c2)ccc1O (stereo not drawn)	inactive
NCCCOc1ccc([N+](=O)[O-])cc1Cl	inactive
O=C(O)C(O)c1ccc(F)cc1 (stereo not drawn)	inactive
CCN(CCCl)c1cc(CN(C)C)cc(NC(=O)c2ccc(C(=O)Nc3cccc(N(CCCl)NN)c3)cc2)c1	active
Cc1ccc(/N=N/C(=N\NC(=O)c2ccc(C)cc2)c2ccc(N(CCC#N)CCC#N)cc2C)cc1	inactive

Data request: Please state the recorded outcome for this compound: `O=C(NCCCl)Nc1ccccc1`
Data returned: inactive

Data request: Please state the recorded outcome for this compound: Cc1ccccc1N(CCC#N)C1=NN(C(=O)CC(=O)Nc2ccccc2)C(c2ccccc2)C1 (stereo not drawn)
Data returned: inactive

Data request: Please state the recorded outcome for this compound: `CC1=C(C(=O)Nc2ccccc2C)C(c2ccco2)C(C(=O)Nc2ccccc2C)=C(C)N1C`
Data returned: inactive

Cited source: ChEMBL document CHEMBL1201862
